- PROTOCOL_NOTES: growth inhibitors of tim10-1 mutant yeast, primary screen, luminescence, uHTS (AID 463190);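 note: mutant grown at 25 °C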
- PROTOCOL_CONDITIONS: S. cerevisiae tim10-1 ts strain growth, BacTiter-Glo, 24 h; at 20 µM; active compounds read high
Screen size: about 330,000 compounds; about 7,300 (2.2%) were called active. The full list was thinned out, with actives kept by preference.
We use 10% as the dividing line for inhibition: on or above the line is True, below is False.

Has Cn1c(CCCOc2ccc(Cl)cc2Cl)n[nH]c1=S a recorded inhibition greater than or equal to 10%?
True

Has COc1ccc(CCNCc2c(-c3ccccc3)n(C)c3ccccc23)cc1 a recorded inhibition greater than or equal to 10%?
True

Has CCc1ccc2oc(-c3ccc(N)cc3)nc2c1 a recorded inhibition greater than or equal to 10%?
True

Has CCC(=O)Nc1nc(C)c(C(=O)Nc2cccc(Cl)c2)s1 a recorded inhibition greater than or equal to 10%?
False

Has CCOc1ccc(C2/C(=C(/O)c3ccc4c(c3)CC(C)O4)C(=O)C(=O)N2CCCn2ccnc2)cc1 (centres undefined) a recorded inhibition greater than or equal to 10%?
False

Has Cc1ccc(C)c(N2CCN(C(=O)CCCCn3c(=O)[nH]c4ccccc4c3=O)CC2)c1 a recorded inhibition greater than or equal to 10%?
True

Has COc1cc(NC(=O)COC(=O)c2ccc([N+](=O)[O-])s2)cc(OC)c1OC a recorded inhibition greater than or equal to 10%?
True

Has Cc1ccsc1C(=O)NCCc1ccco1 a recorded inhibition greater than or equal to 10%?
False

Has Cn1ccs/c1=N\S(=O)(=O)c1ccc(C(C)(C)C)cc1 a recorded inhibition greater than or equal to 10%?
True

Has O=C1C2(c3ccccc3)CN(CCCO)CC1(c1ccccc1)CN(CCCO)C2 a recorded inhibition greater than or equal to 10%?
True

Has COc1ccc(-c2cc(C(=O)Nc3ccccc3O)c3ccccc3n2)cc1 a recorded inhibition greater than or equal to 10%?
True

Has Cc1cccc(OCC(=O)NCCNC(=O)c2cccnc2)c1 a recorded inhibition greater than or equal to 10%?
False

Has CCSC(C)CC1C/C(=N/O)c2c(C)noc2C1 (centres undefined) a recorded inhibition greater than or equal to 10%?
False

Has CCOC(=O)N1CCN(C(=O)c2cc3c(-c4ccc(Cl)cc4)nn(C)c3s2)CC1 a recorded inhibition greater than or equal to 10%?
True

Has Cc1ccc(-c2csc(NC3OC(=O)c4ccccc43)n2)cc1 (centres undefined) a recorded inhibition greater than or equal to 10%?
False

Has Cc1cccc(OCCNC(=S)NC(=O)c2cccnc2)c1 a recorded inhibition greater than or equal to 10%?
True

Has O=C(NOCc1ccccc1)c1cccc([N+](=O)[O-])c1 a recorded inhibition greater than or equal to 10%?
True

Has S=c1[nH]nc(-c2ccco2)n1/N=C/c1ccc(Br)s1 a recorded inhibition greater than or equal to 10%?
True

Has Cc1cc2nc(-c3ccc(NC(=O)c4cccnc4)cc3)oc2cc1C a recorded inhibition greater than or equal to 10%?
True

Has COc1ccc(Oc2cn[nH]c2-c2ccc(OC)cc2O)cc1 a recorded inhibition greater than or equal to 10%?
True

Has COc1cccc(/C=C/C(=O)OCC(=O)N2CCN(c3ccccc3)CC2)c1 a recorded inhibition greater than or equal to 10%?
True

Has CC(=O)N/C(=C\c1ccccc1)C(=O)OC(C)C(=O)N(C)c1ccccc1 (centres undefined) a recorded inhibition greater than or equal to 10%?
False

Has O=C(COC(=O)/C=C/c1ccc(S(=O)(=O)N2CCCCCC2)cc1)NCc1ccccc1Cl a recorded inhibition greater than or equal to 10%?
True

Has COc1ccc(-c2c(C#Cc3ccccc3)c3ccccc3n2C)cc1 a recorded inhibition greater than or equal to 10%?
True

Has O=C(NNc1c2ccccc2nc2ccccc12)c1cc2ccccc2cc1O a recorded inhibition greater than or equal to 10%?
True

Has CCN(c1ccccc1)S(=O)(=O)c1ccc2[nH]c(=O)[nH]c2c1 a recorded inhibition greater than or equal to 10%?
True

Has COc1ccccc1N1CCN(C(=O)c2cc3c(-c4ccc(Cl)cc4)nn(C)c3s2)CC1 a recorded inhibition greater than or equal to 10%?
True

Has COc1ccc(CN2CCN(Cc3ccc(OC)c(OC)c3OC)CC2)cc1 a recorded inhibition greater than or equal to 10%?
False

Has Cc1ccc(N2C(=O)C3C4C=CC(CC4)C3C2=O)cc1Br (centres undefined) a recorded inhibition greater than or equal to 10%?
False

Has COC(C[C@H](O)CC(=O)[C@@H](C)OCc1ccccc1)OC a recorded inhibition greater than or equal to 10%?
False

Has OC1CN=C2Sc3ccccc3N2C1 (centres undefined) a recorded inhibition greater than or equal to 10%?
True

Has Cc1ccc(-c2csc(NC(=O)Cn3[nH]c(=O)c4ccccc4c3=O)n2)cc1 a recorded inhibition greater than or equal to 10%?
True

Has Cc1ccc(C(=O)N/N=C\c2cc(Br)c(Br)o2)cn1 a recorded inhibition greater than or equal to 10%?
False

Has Cc1cc(C)n(CCNCc2c(C(=O)N3C[C@@H](C)O[C@@H](C)C3)nc3ccc(Cl)cn23)n1 a recorded inhibition greater than or equal to 10%?
False

Has O=C(CCNS(=O)(=O)c1ccccc1C(F)(F)F)NCc1ccc2c(c1)OCO2 a recorded inhibition greater than or equal to 10%?
True

Has CC(=O)NC(CC(=O)Nc1cccc(S(=O)(=O)N2CCCC2)c1)c1ccccc1 (centres undefined) a recorded inhibition greater than or equal to 10%?
True

Has CCCOc1cccc(C(=O)NCCCNC(=O)c2cccnc2)c1 a recorded inhibition greater than or equal to 10%?
False

Has CCCN(C(=O)CSc1nnnn1C)c1c(N)n(Cc2ccccc2)c(=O)[nH]c1=O a recorded inhibition greater than or equal to 10%?
False

Has Cc1ccc(C)c(-n2ccnc2SCC(N)=O)c1 a recorded inhibition greater than or equal to 10%?
False

Has O=C(Nc1cccc(Cl)c1)c1cc(S(=O)(=O)N2CCCCC2)c[nH]1 a recorded inhibition greater than or equal to 10%?
False

Has CCCCn1c(=S)[nH]c2cc(S(=O)(=O)N3CCCCC3)ccc21 a recorded inhibition greater than or equal to 10%?
True

Has Cc1ccc(C(=O)Nc2c(C#N)c(C)c(C)n2Cc2ccccc2)cc1 a recorded inhibition greater than or equal to 10%?
True

Has N#Cc1cccc(NC(=O)C2CCCN(C(=O)c3ccc(Cl)cc3)C2)c1 (centres undefined) a recorded inhibition greater than or equal to 10%?
False
